# TARGET OR TEST SYSTEM: T1, cynomolgus TIM-3 on isolated cyno CD14+ monocytes (cynomolgus)
# T1 construct: whole, on cells
# TEST SUMMARY: flow cytometry, cyno CD14+ monocytes cyno3
READOUT KIND: MFI (MFI)

>  <BINDER>
Tim3_0026 (antibody, V domains shown) VH: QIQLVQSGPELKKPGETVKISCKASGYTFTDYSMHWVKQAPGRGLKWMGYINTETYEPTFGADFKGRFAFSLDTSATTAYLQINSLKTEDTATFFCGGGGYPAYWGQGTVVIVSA VL: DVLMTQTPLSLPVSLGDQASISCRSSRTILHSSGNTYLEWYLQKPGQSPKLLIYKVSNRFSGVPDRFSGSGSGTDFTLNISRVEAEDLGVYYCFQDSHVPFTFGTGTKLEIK

>  <VALUE UNIT>
MFI

>  <READING>
197

$$$$
